These entries and their values trace back to patent US6821980B1.

The compounds listed here are annotated with their log10(IC50).
target: purified DHFR of strain 157/4696 of Staphylococcus aureus (Staphylococcus aureus); experiment: biochemical
Sequence (P13955 whole entry): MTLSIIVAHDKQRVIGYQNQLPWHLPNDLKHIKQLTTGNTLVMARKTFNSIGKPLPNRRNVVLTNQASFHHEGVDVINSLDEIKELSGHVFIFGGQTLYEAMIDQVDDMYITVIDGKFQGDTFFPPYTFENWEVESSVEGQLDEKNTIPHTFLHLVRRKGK
Hi team, quick reminder: these entries are log10 of IC50 (nM).

Worked examples follow.
compound | val
CCOc1cc(Cc2cnc(N)nc2N)cc(OCC)c1-c1ccc(OC)c(OC)c1 [Example 02-l] | 3.90
CCOc1cc(Cc2cnc(N)nc2N)cc(OCC)c1-c1ccc(CN2CCCC2)cc1 [Example 04-y] | 2.95
CCOc1cc(Cc2cnc(N)nc2N)cc(OS(=O)(=O)N(C)C)c1-c1ccc(CN2CCOCC2)c(F)c1 [Example 64-b] | 2.48
CCOc1cc(Cc2cnc(N)nc2N)cc(OCC)c1-c1cnc(CN2CCOCC2)nc1 [Example 04-x] | 3.90
CCOc1cc(Cc2cnc(N)nc2N)cc(OS(=O)(=O)C2CCC2)c1-c1ccc(N)c(C)c1 [Example 40c] | 1.57
CCOc1cc(Cc2cnc(N)nc2N)cc(OS(=O)(=O)N(C)C)c1-c1ccc2[nH]ccc2c1 [Example 43-d] | 2.26
CCOc1cc(Cc2cnc(N)nc2N)cc(OS(=O)(=O)N(C)C)c1-c1ccc(N)cc1 [Example 22-a] | 1.68
CCOc1cc(Cc2cnc(N)nc2N)cc(OCC2CC2)c1-c1ccc(OC)cc1 [Example 09-d] | 3.18
CCOc1cc(Cc2cnc(N)nc2N)cc(OS(=O)(=O)N(CC)CC)c1-c1ccc(NC)cc1 [Example 26-f] | 2.36
CCOc1cc(Cc2cnc(N)nc2N)cc(OS(=O)(=O)C2CC2)c1-c1cc(N)cc(F)c1 [Example 34-c] | 2.28

Then this compound:
I would be grateful if you could share the reported log10(IC50) for CCOc1cc(Cc2cnc(N)nc2N)cc(O[C@@H]2CCC[C@H]2OC)c1-c1ccc(O)cc1 (relative stereo) [Example 08-y] .
3.43
